target: horseradish peroxidase (HRP) tagged delF508-CFTR (Homo sapiens, UniProt P13569, DEL508-508); construct: expressed in transfected cells; experiment: Measurement of delF508-CFTR-HRP surface expression in CFBE41o- cells; type: cell-based; conditions: delF508-CFTR-HRP surface expression, CFBE41o- cells; read-out: DelF508-CFTR-HRP Amax %;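 note: percent efficacy relative to reference corrector lumacaftor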
Sequence (P13569 with tags, fused parts or gaps DEL508-508): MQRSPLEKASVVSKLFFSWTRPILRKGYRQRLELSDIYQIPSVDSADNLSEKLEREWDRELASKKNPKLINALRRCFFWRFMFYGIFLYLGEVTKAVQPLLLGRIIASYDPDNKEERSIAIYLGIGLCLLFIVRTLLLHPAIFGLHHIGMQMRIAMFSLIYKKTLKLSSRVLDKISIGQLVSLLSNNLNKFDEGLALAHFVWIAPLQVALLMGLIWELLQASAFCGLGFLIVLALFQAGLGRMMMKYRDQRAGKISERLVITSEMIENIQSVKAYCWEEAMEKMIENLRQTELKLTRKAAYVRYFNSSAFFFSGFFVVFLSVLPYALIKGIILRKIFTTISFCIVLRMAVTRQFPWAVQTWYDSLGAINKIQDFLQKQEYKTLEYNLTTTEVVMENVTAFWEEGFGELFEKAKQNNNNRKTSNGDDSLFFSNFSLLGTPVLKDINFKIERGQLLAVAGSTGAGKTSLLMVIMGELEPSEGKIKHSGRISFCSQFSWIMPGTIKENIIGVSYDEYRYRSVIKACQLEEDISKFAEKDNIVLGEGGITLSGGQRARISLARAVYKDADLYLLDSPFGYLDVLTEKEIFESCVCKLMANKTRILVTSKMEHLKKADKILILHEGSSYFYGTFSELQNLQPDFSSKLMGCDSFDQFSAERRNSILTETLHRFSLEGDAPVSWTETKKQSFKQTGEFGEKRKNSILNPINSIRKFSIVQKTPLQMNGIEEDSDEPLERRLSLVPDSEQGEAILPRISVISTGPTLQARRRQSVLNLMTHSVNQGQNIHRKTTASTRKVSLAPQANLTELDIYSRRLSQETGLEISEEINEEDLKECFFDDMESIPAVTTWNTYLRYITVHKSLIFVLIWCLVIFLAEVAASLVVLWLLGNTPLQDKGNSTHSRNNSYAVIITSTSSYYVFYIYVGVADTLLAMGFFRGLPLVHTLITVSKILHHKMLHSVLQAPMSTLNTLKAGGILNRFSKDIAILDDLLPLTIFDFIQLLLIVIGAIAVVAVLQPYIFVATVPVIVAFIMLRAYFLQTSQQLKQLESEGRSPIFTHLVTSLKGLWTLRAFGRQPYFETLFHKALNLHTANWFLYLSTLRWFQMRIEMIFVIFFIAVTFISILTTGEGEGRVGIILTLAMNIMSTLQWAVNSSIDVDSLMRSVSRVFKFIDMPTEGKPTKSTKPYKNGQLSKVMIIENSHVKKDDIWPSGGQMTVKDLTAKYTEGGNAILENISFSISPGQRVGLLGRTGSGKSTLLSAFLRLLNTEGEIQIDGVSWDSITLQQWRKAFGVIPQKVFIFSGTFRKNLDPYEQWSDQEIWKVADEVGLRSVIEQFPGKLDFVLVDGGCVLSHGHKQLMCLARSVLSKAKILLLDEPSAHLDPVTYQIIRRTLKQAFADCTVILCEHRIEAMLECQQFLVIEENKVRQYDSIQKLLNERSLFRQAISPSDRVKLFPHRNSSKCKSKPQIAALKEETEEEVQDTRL
QUANTITY NAME: Emax

MOLECULE | RESULT
Cc1c(C#N)cccc1-c1nc(NS(=O)(=O)c2cccc(N)n2)ccc1Cl [Example 67] | 214%
Cc1ccccc1-c1nc(NS(=O)(=O)c2cccc(O[C@@H]3COC[C@@H]3O)n2)ccc1C(F)(F)F (single isomer, unassigned) [Example 296] | 255%
Cc1ccc(F)cc1-c1nc(NS(=O)(=O)c2cccc(N3CCN(C(=O)OC(C)(C)C)CC3)n2)ccc1Cl [Example 298] | 677%
CC1(C(=O)O)CCN(c2cccc(S(=O)(=O)Nc3ccc(C(F)(F)F)c(-c4ccc(F)cc4Cl)n3)n2)CC1 [Example 240] | 385%
Nc1cccc(S(=O)(=O)Nc2ccc(Cl)c(-c3ccccc3F)n2)n1 [Example 69] | 199%
Cc1cccc(C)c1-c1nc(NS(=O)(=O)c2ccc(N)nc2)ccc1Cl [Example 47] | 335%
Cc1ccccc1-c1nc(NS(=O)(=O)c2cccc(O[C@@H]3COC[C@@]3(C)O)n2)ccc1C(F)(F)F (single isomer, unassigned) [Example 295] | 468%

src = patent US11066369B2
